Target: GluK3 (Rattus norvegicus)
Construct: made in house; host or cells: Sf9 insect cells (membranes)
Sequence (P42264 32-919): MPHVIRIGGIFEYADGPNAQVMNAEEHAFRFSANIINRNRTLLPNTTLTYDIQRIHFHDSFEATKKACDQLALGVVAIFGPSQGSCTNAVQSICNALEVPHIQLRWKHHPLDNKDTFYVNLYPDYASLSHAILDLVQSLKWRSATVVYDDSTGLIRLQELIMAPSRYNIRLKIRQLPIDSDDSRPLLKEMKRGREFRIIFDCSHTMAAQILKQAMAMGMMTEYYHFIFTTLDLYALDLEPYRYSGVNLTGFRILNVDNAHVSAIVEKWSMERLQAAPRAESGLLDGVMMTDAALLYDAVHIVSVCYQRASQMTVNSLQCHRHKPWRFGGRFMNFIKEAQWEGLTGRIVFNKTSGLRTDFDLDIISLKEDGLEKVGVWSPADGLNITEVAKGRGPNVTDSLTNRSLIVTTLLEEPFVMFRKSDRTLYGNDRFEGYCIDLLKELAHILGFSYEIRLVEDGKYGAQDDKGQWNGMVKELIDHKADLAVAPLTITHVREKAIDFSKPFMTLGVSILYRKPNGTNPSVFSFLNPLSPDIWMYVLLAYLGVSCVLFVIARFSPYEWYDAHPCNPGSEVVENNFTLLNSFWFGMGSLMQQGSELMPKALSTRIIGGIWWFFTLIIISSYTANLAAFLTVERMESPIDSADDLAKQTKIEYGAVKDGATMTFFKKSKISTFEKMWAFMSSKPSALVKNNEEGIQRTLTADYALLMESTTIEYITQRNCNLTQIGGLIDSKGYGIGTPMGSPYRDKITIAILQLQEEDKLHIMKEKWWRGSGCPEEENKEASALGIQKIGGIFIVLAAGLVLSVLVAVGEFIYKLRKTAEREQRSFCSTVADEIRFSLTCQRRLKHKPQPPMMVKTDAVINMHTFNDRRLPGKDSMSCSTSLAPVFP
Assay: Radioligand binding at recombinant homomeric GluK3 in Sf9 membranes
Details: recombinant rat homomeric receptor, [3H]-kainic acid, mean ± SEM

Compound | Study Target | Unit | Value Relation Sign | Ki
O=C(O)c1cccc(C#Cc2ccc3c(c2)[nH]c(=O)c(=O)n3NC(=O)c2ccccc2)c1 [Compound 14] | GluK3 (Rattus norvegicus) | µM | = | 28
O=C(Nn1c(=O)c(=O)[nH]c2cc(C#Cc3ccc(Cl)cc3)ccc21)c1ccccc1 [Compound 10] | GluK3 (Rattus norvegicus) | µM | = | 3.5
O=C(O)c1ccc(C#Cc2ccc3c(c2)[nH]c(=O)c(=O)n3NC(=O)c2ccccc2)cc1 [Compound 15] | GluK3 (Rattus norvegicus) | µM | = | 31
O=C(Nn1c(=O)c(=O)[nH]c2cc(C#Cc3ccc(C(F)(F)F)cc3)ccc21)c1ccccc1 [Compound 11] | GluK3 (Rattus norvegicus) | µM | > | 100
O=C(Nn1c(=O)c(=O)[nH]c2cc(C#Cc3ccncc3)ccc21)c1ccccc1 [Compound 25] | GluK3 (Rattus norvegicus) | µM | = | 25
O=C(Nn1c(=O)c(=O)[nH]c2cc(C#Cc3ccc(Oc4ccccc4)cc3)ccc21)c1ccccc1 [Compound 13] | GluK3 (Rattus norvegicus) | µM | = | 7.9
COc1ccc(C#Cc2ccc3c(c2)[nH]c(=O)c(=O)n3NC(=O)c2ccccc2)cc1 [Compound 12] | GluK3 (Rattus norvegicus) | µM | = | 8.3
O=C(Nn1c(=O)c(=O)[nH]c2cc(-c3cc4ccccc4o3)ccc21)c1ccccc1 [Compound 18] | GluK3 (Rattus norvegicus) | µM | = | 14
O=C(Nn1c(=O)c(=O)[nH]c2cc(C#Cc3ccc(CO)cc3)ccc21)c1ccccc1 [Compound 20] | GluK3 (Rattus norvegicus) | µM | = | 5.8
Cc1cccc(C#Cc2ccc3c(c2)[nH]c(=O)c(=O)n3NC(=O)c2ccccc2)c1 [Compound 5] | GluK3 (Rattus norvegicus) | µM | = | 1.4
O=C(Nn1c(=O)c(=O)[nH]c2cc(C#Cc3cccc(O)c3)ccc21)c1ccccc1 [Compound 19] | GluK3 (Rattus norvegicus) | µM | = | 3.2
O=C(Nn1c(=O)c(=O)[nH]c2cc(C#Cc3ccc4[nH]ncc4n3)ccc21)c1ccccc1 [Compound 29] | GluK3 (Rattus norvegicus) | µM | = | 0.13
CC(C)c1ccc(C#Cc2ccc3c(c2)[nH]c(=O)c(=O)n3NC(=O)c2ccccc2)cc1 [Compound 9] | GluK3 (Rattus norvegicus) | µM | = | 38
CN(C)c1ccc(C#Cc2ccc3c(c2)[nH]c(=O)c(=O)n3NC(=O)c2ccccc2)cc1 [Compound 24] | GluK3 (Rattus norvegicus) | µM | = | 24
Nc1ccc(C#Cc2ccc3c(c2)[nH]c(=O)c(=O)n3NC(=O)c2ccccc2)cc1 [Compound 23] | GluK3 (Rattus norvegicus) | µM | = | 1.4
O=C(Nn1c(=O)c(=O)[nH]c2cc(C#Cc3cnc4cccnn34)ccc21)c1ccccc1 [Compound 28] | GluK3 (Rattus norvegicus) | µM | = | 0.25
Cc1ccc(C#Cc2ccc3c(c2)[nH]c(=O)c(=O)n3NC(=O)c2ccccc2)cc1 [Compound 6] | GluK3 (Rattus norvegicus) | µM | = | 6.1

* * *

Metric Name: melting point

Compound Smiles | Experimental Result
Nc1ccccc1C#Cc1ccc2c(c1)[nH]c(=O)c(=O)n2NC(=O)c1ccccc1 | 303 to 305 °C
CCc1ccc(C#Cc2ccc3c(c2)[nH]c(=O)c(=O)n3NC(=O)c2ccccc2)cc1 | 308 to 310 °C
CN(C)c1ccc(C#Cc2ccc3c(c2)[nH]c(=O)c(=O)n3NC(=O)c2ccccc2)cc1 | 273 to 275 °C
O=C(Nn1c(=O)c(=O)[nH]c2cc(C#Cc3ccc(Cl)cc3)ccc21)c1ccccc1 | 326 to 327 °C

* * *

Target: GluK1 (Rattus norvegicus)
Construct: made in house; host or cells: Sf9 insect cells (membranes)
Sequence (P22756 31-949): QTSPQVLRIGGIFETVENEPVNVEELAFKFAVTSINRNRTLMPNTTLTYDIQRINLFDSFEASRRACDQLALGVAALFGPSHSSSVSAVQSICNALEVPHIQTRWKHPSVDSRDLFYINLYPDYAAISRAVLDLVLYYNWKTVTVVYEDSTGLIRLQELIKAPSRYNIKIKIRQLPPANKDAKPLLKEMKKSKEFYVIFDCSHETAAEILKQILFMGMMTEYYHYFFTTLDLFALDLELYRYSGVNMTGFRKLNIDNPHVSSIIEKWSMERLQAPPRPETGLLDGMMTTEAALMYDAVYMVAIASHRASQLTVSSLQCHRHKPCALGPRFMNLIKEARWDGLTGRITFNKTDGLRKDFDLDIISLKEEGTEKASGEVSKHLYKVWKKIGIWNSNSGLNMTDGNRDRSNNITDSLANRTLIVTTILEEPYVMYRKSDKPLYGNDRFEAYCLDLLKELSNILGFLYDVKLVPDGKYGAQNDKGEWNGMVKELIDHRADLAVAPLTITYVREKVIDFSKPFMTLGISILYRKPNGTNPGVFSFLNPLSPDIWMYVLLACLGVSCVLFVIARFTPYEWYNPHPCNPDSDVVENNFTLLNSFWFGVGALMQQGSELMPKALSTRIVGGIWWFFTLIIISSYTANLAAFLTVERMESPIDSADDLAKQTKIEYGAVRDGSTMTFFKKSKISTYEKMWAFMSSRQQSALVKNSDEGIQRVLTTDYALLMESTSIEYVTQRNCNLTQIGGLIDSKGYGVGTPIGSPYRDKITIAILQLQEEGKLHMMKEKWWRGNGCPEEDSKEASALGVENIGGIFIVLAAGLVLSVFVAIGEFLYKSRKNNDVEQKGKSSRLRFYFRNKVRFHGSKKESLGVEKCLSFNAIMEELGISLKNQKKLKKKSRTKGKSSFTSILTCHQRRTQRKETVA
Assay: Radioligand binding at recombinant homomeric GluK1 in Sf9 membranes
Conditions: recombinant rat homomeric receptor, [3H]-(S)-NF608, mean ± SEM
pKi: −log10 of the molar value.

Compound Smiles | pKi
O=C(Nn1c(=O)c(=O)[nH]c2cc(C#Cc3ccc(Oc4ccccc4)cc3)ccc21)c1ccccc1 | ≤ 4.00
Nc1cccc(C#Cc2ccc3c(c2)[nH]c(=O)c(=O)n3NC(=O)c2ccccc2)c1 | < 4.00
CCc1ccc(C#Cc2ccc3c(c2)[nH]c(=O)c(=O)n3NC(=O)c2ccccc2)cc1 | < 4.00
O=C(Nn1c(=O)c(=O)[nH]c2cc(C#Cc3ccncc3)ccc21)c1ccccc1 | < 4.00
O=C(O)c1ccc(C#Cc2ccc3c(c2)[nH]c(=O)c(=O)n3NC(=O)c2ccccc2)cc1 | < 4.00
Nc1ccc(C#Cc2ccc3c(c2)[nH]c(=O)c(=O)n3NC(=O)c2ccccc2)cc1 | < 4.00
O=C(Nn1c(=O)c(=O)[nH]c2cc(C#Cc3ccc(C(F)(F)F)cc3)ccc21)c1ccccc1 | ~4.00
CCCc1ccc(C#Cc2ccc3c(c2)[nH]c(=O)c(=O)n3NC(=O)c2ccccc2)cc1 | < 4.00
O=C(O)c1cccc(C#Cc2ccc3c(c2)[nH]c(=O)c(=O)n3NC(=O)c2ccccc2)c1 | < 4.00
Nc1ccccc1C#Cc1ccc2c(c1)[nH]c(=O)c(=O)n2NC(=O)c1ccccc1 | 4.85
Cc1cccc(C#Cc2ccc3c(c2)[nH]c(=O)c(=O)n3NC(=O)c2ccccc2)c1 | ~4.00
O=C(Nn1c(=O)c(=O)[nH]c2cc(C#Cc3ccc(CO)cc3)ccc21)c1ccccc1 | ~4.00
O=C(Nn1c(=O)c(=O)[nH]c2cc(C#Cc3cccc(O)c3)ccc21)c1ccccc1 | < 4.00
CN(C)c1ccc(C#Cc2ccc3c(c2)[nH]c(=O)c(=O)n3NC(=O)c2ccccc2)cc1 | 4.41
O=C(Nn1c(=O)c(=O)[nH]c2cc(-c3cc4ccccc4o3)ccc21)c1ccccc1 | < 4.00

* * *

Entries and their melting point values follow.
Metric Name: melting point

Compound | Experimental Result
CCCc1ccc(C#Cc2ccc3c(c2)[nH]c(=O)c(=O)n3NC(=O)c2ccccc2)cc1 [Compound 8] | 305 to 306 °C
Nc1ccc(C#Cc2ccc3c(c2)[nH]c(=O)c(=O)n3NC(=O)c2ccccc2)cc1 [Compound 23] | 312 to 314 °C
O=C(Nn1c(=O)c(=O)[nH]c2cc(C#Cc3ccncc3)ccc21)c1ccccc1 [Compound 25] | 239 to 241 °C
COc1ccc(C#Cc2ccc3c(c2)[nH]c(=O)c(=O)n3NC(=O)c2ccccc2)cc1 [Compound 12] | 304 to 305 °C
O=C(O)c1ccc(C#Cc2ccc3c(c2)[nH]c(=O)c(=O)n3NC(=O)c2ccccc2)cc1 [Compound 15] | 348 to 349 °C
O=C(O)c1cccc(C#Cc2ccc3c(c2)[nH]c(=O)c(=O)n3NC(=O)c2ccccc2)c1 [Compound 14] | 310 to 312 °C
Nc1cccc(C#Cc2ccc3c(c2)[nH]c(=O)c(=O)n3NC(=O)c2ccccc2)c1 [Compound 22] | 274 to 275 °C
Cc1cccc(C#Cc2ccc3c(c2)[nH]c(=O)c(=O)n3NC(=O)c2ccccc2)c1 [Compound 5] | 318 to 320 °C
O=C(Nn1c(=O)c(=O)[nH]c2cc(C#Cc3ccc(CO)cc3)ccc21)c1ccccc1 [Compound 20] | 298 to 300 °C
NS(=O)(=O)c1ccc(C#Cc2ccc3c(c2)[nH]c(=O)c(=O)n3NC(=O)c2ccccc2)cc1 [Compound 16] | 303 to 305 °C
O=C(Nn1c(=O)c(=O)[nH]c2cc(C#Cc3cnc4cccnn34)ccc21)c1ccccc1 [Compound 28] | 314 to 315 °C
O=C(Nn1c(=O)c(=O)[nH]c2cc(C#Cc3cncnc3)ccc21)c1ccccc1 [Compound 27] | 318 to 320 °C
O=C(Nn1c(=O)c(=O)[nH]c2cc(C#Cc3cccc(O)c3)ccc21)c1ccccc1 [Compound 19] | 313 to 314 °C
Cc1ccc(C#Cc2ccc3c(c2)[nH]c(=O)c(=O)n3NC(=O)c2ccccc2)cc1 [Compound 6] | 325 to 327 °C
CC(C)c1ccc(C#Cc2ccc3c(c2)[nH]c(=O)c(=O)n3NC(=O)c2ccccc2)cc1 [Compound 9] | 263 to 264 °C
O=C(Nn1c(=O)c(=O)[nH]c2cc(C#Cc3ccc(Oc4ccccc4)cc3)ccc21)c1ccccc1 [Compound 13] | 262 to 263 °C

* * *

Entries and their Ki values follow.
Target: GluK2 (Rattus norvegicus, UniProt P42260)
Construct: made in house; host or cells: Sf9 insect cells (membranes)
Sequence (P42260 32-908): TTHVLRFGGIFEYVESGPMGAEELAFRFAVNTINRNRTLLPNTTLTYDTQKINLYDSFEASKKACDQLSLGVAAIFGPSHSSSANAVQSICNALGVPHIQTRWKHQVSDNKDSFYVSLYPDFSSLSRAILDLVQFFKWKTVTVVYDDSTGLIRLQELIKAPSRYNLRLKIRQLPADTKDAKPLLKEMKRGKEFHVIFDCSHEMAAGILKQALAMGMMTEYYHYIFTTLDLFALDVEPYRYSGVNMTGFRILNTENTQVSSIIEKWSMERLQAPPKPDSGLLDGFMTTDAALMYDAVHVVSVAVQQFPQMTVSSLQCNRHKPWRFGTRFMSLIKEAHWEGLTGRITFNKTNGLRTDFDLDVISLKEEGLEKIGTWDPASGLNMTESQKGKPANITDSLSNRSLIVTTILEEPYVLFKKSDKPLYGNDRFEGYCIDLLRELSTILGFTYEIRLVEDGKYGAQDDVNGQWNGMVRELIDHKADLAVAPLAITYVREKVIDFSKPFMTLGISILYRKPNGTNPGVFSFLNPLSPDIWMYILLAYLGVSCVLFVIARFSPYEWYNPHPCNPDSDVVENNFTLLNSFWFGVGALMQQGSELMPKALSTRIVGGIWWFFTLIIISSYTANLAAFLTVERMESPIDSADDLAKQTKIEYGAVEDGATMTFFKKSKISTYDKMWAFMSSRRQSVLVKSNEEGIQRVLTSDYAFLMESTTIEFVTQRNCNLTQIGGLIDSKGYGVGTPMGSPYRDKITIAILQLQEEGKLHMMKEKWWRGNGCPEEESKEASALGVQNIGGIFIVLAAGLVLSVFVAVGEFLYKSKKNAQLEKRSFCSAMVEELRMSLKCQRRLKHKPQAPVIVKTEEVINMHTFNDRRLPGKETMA
Test: Radioligand binding at recombinant homomeric GluK2 in Sf9 membranes
Settings: recombinant rat homomeric receptor, [3H]-kainic acid, mean ± SEM
Description: Ligand binding affinities at recombinant rat homomeric GluA2, GluK1−3, and GluK5 were determined as previously detailed. […] The filters were dried at 70 °C for 1 h, and 50 μL/well Microscint 20 (PerkinElmer, Waltham, MA, USA) was added. Radioactivity was detected with a TopCounter (PerkinElmer, Waltham, MA, USA). […] All competition curves (n ≥ 3 per ligand) were determined in triplicate. […]

Compound | Ki
CC(C)c1ccc(C#Cc2ccc3c(c2)[nH]c(=O)c(=O)n3NC(=O)c2ccccc2)cc1 [Compound 9] | > 100 µM
NS(=O)(=O)c1cccc2c1c([N+](=O)[O-])cc1nc(O)c(O)nc12 [NBQX, reference compound] | 5.4 µM
O=C(Nn1c(=O)c(=O)[nH]c2cc(C#Cc3cnc4cccnn34)ccc21)c1ccccc1 [Compound 28] | > 100 µM
CCCc1ccc(C#Cc2ccc3c(c2)[nH]c(=O)c(=O)n3NC(=O)c2ccccc2)cc1 [Compound 8] | > 100 µM
COc1ccc(C#Cc2ccc3c(c2)[nH]c(=O)c(=O)n3NC(=O)c2ccccc2)cc1 [Compound 12] | > 100 µM
O=C(O)c1ccc(C#Cc2ccc3c(c2)[nH]c(=O)c(=O)n3NC(=O)c2ccccc2)cc1 [Compound 15] | > 100 µM
